experimental_details: Solubility at 25° C. (w/v), saturated solutions, Elson-Morgan colorimetric method
Assay type: physicochemical
measurement_context: organic solvent or mixture, ethanol, w/v
quantity: solubility thermodynamic

Short answer for N[C@H]1C(O)O[C@H](CO)[C@@H](O)[C@@H]1O (stereo partly shown) : solubility thermodynamic was ~300 µg/mL

====

experimental_details: Solubility at 25° C. (w/v), saturated solutions, Elson-Morgan colorimetric method
Assay type: physicochemical
measurement_context: water, w/v
quantity: solubility thermodynamic

solubility thermodynamic for N[C@H]1C(O)O[C@H](CO)[C@@H](O)[C@@H]1O (stereo partly shown) is ~400 mg/mL

====

experimental_details: Acute toxicity in mice
Parameters: species or system Swiss NMRI mice
measurement_context: mouse, in vivo, im, intramuscular, max. dose 3000 mg/kg
quantity: mortality at 240 h (%)
One number for each entry, in %.

Please fill in: mortality at 240 h reported for N[C@H]1C(O)O[C@H](CO)[C@@H](O)[C@@H]1O.O=S(=O)(O)O (stereo partly shown) [Glucosamine sulphate, glucosamine sulphate] = 0

====

experimental_details: physchem
measurement_context: solid storage, Titre of glucosamine
quantity: remaining at 168 h (%)
One number for each entry, in %.

According to the records, this compound N[C@H]1C(O)O[C@H](CO)[C@@H](O)[C@@H]1O.O=S(=O)(O)O (stereo partly shown) [Glucosamine sulphate, glucosamine sulphate] displays remaining at 168 h of 98.3

====

experimental_details: physchem
measurement_context: solid storage, Titre of glucosamine
quantity: remaining at 16 h
Please don't drop the unit; write it after the number.

Item: N[C@H]1C(O)O[C@H](CO)[C@@H](O)[C@@H]1O.O=S(=O)(O)O (stereo partly shown) [Glucosamine sulphate, glucosamine sulphate] | remaining at 16 h: 73.8%

====

experimental_details: physchem
measurement_context: solid storage, Titre of glucosamine
quantity: remaining at 1440 h
Could you kindly put the unit after your number?

Record summary for N[C@H]1C(O)O[C@H](CO)[C@@H](O)[C@@H]1O.O=S(=O)(O)O (stereo partly shown) [Glucosamine sulphate, glucosamine sulphate] : reported remaining at 1440 h = 98.1%

====

experimental_details: Acute toxicity in mice
Parameters: species or system Swiss NMRI mice
measurement_context: mouse, in vivo, iv, endovenous, max. dose 1500 mg/kg
quantity: mortality at 240 h (%)
One number for each entry, in %.

Please fill in: mortality at 240 h reported for N[C@H]1C(O)O[C@H](CO)[C@@H](O)[C@@H]1O.O=S(=O)(O)O (stereo partly shown) [Glucosamine sulphate, glucosamine sulphate] = 0

====

experimental_details: physchem
measurement_context: solid storage, 85% rh
quantity: degraded at 8760 h

The reported degraded at 8760 h of the compound N[C@H]1C(O)O[C@H](CO)[C@@H](O)[C@@H]1O (stereo partly shown) was 3 to 4%

====

I'd be grateful if you could share measured LD50 at 240 h for these entries.
experimental_details: Acute toxicity in rats
Parameters: species or system Sprague Dawley albino rats
measurement_context: rat, in vivo, oral, 10 days observation, read-out: DL50

Can you give me LD50 at 240 h for all of these, one by one?
1. N[C@H]1C(O)O[C@H](CO)[C@@H](O)[C@@H]1O.O=S(=O)(O)O (some centres unmarked) [Glucosamine sulphate, glucosamine sulphate]
2. N[C@H]1C(O)O[C@H](CO)[C@@H](O)[C@@H]1O (some centres unmarked)

1. > 5000 mg/kg
2. > 6250 mg/kg

====

experimental_details: physchem
measurement_context: solid storage, Titre of glucosamine
quantity: remaining at 36 h (%)
Give bare numbers, in %.

// field: remaining at 36 h; key: N[C@H]1C(O)O[C@H](CO)[C@@H](O)[C@@H]1O (stereo partly shown) ; value = 100

====

experimental_details: physchem
measurement_context: solid storage, Titre of glucosamine
quantity: remaining at 1152 h (%)
Numbers only, in %.

Sample N[C@H]1C(O)O[C@H](CO)[C@@H](O)[C@@H]1O (stereo partly shown) ; remaining at 1152 h observed: 101

====

experimental_details: Acute toxicity in rats
Parameters: species or system Sprague Dawley albino rats
measurement_context: rat, in vivo, oral, max. dose 5000 mg/kg
quantity: mortality at 240 h (%)
Numbers only, in %.

The reported value for N[C@H]1C(O)O[C@H](CO)[C@@H](O)[C@@H]1O.O=S(=O)(O)O (stereo partly shown) [Glucosamine sulphate, glucosamine sulphate] in terms of mortality at 240 h is 0

====

experimental_details: Acute toxicity in rats
Design: species or system Sprague Dawley albino rats
measurement_context: rat, in vivo, iv, endovenous, max. dose 1875 mg/kg
quantity: mortality at 240 h

Record N[C@H]1C(O)O[C@H](CO)[C@@H](O)[C@@H]1O (stereo partly shown) . Reported mortality at 240 h: 0%

====

experimental_details: Acute toxicity in mice
Design: species or system Swiss NMRI mice
measurement_context: mouse, in vivo, im, intramuscular, 10 days observation, read-out: DL50
Kindly state LD50 at 240 h for each of the entries shown.

1. N[C@H]1C(O)O[C@H](CO)[C@@H](O)[C@@H]1O (some centres unmarked) | > 3750 mg/kg

Turning now to a further record.
The measured LD50 at 240 h associated with N[C@H]1C(O)O[C@H](CO)[C@@H](O)[C@@H]1O.O=S(=O)(O)O (some centres unmarked) [Glucosamine sulphate, glucosamine sulphate] reads > 3000 mg/kg

====

experimental_details: physchem
measurement_context: solid storage, Titre of glucosamine
quantity: remaining at 720 h (%)
Give bare numbers, in %.

// field: remaining at 720 h; key: N[C@H]1C(O)O[C@H](CO)[C@@H](O)[C@@H]1O.O=S(=O)(O)O (stereo partly shown) [Glucosamine sulphate, glucosamine sulphate] ; value = 99.4

====

experimental_details: Acute toxicity in rats
Set-up: species or system Sprague Dawley albino rats
measurement_context: rat, in vivo, iv, endovenous, 10 days observation, read-out: DL50
For each record, write down the corresponding LD50 at 240 h.

1) N[C@H]1C(O)O[C@H](CO)[C@@H](O)[C@@H]1O.O=S(=O)(O)O (some centres unmarked) [Glucosamine sulphate, glucosamine sulphate] | > 1500 mg/kg

// next item, LD50 at 240 h requested
Memo: N[C@H]1C(O)O[C@H](CO)[C@@H](O)[C@@H]1O (some centres unmarked) , reported LD50 at 240 h: > 1880 mg/kg
